# experiment: Determination of half-life in SD rats (IV and PO, plasma LC-MS/MS)
# assay setup: Sprague-Dawley (SD), rat, iv, 1 mg/kg
Lab note: anything with half-life at or over 2 h counts as class 1; the rest go in class 0.

{"compound": "COc1ccc(COc2nc(N3CCCC34CC4)ncc2C(=O)NCc2ccccc2)cc1Cl", "category": "class 1"}
{"compound": "COc1ccc(COc2nc(N3CCC4(CC3)CC4)ncc2C(=O)NCc2ccccc2)cc1Cl", "category": "class 1"}

Now look at this one.
Please tell me: is the compound `COc1ccc(COc2nc(N3CCC4(CC4)C3)ncc2C(=O)NCc2ccccc2)cc1Cl` at or over 2 h in terms of half-life?
class 1

These data points were gathered from patent US8980904B2.
